Tested on: 786-O
Test protocol: Euclidean distance of Cell Painting phenotypic profile (signed KS, 77 features) to DMSO centroid (dimensionless distance); 5 or 10 uM (library dependent); higher = stronger phenotypic change vs DMSO (phenoactivity)
Conditions used: 48 h
Counter-ions that a name gives are not always drawn.
# cutoff 2 applies to Euclidean distance; >= gives yes (1), < gives no (0)

{"Molecule": "COc1ccc(CN2CCN(C(c3ccc(F)cc3)c3ccc(F)cc3)CC2)c(OC)c1OC [Lomerizine 2HCl]", "Cat": "no (0)"}
{"Molecule": "COc1cc(C(C)=O)ccc1OCCCN1CCC(c2noc3cc(F)ccc23)CC1 [Iloperidone]", "Cat": "no (0)"}
{"Molecule": "COc1cc2ncnc(Nc3ccc(O)c(Br)c3)c2cc1OC", "Cat": "no (0)"}
{"Molecule": "CN(C)c1nc(N(C)C)nc(N(C)C)n1 [Altretamine]", "Cat": "no (0)"}
{"Molecule": "O=C(O)c1cc(O)c2c(c1)[C@@H]([C@H]1c3cc(C(=O)O)cc(O)c3C(=O)c3c(O[C@@H]4O[C@H](CO)[C@@H](O)[C@H](O)[C@H]4O)cccc31)c1cccc(O[C@@H]3O[C@H](CO)[C@@H](O)[C@H](O)[C@H]3O)c1C2=O [Sennoside B]", "Cat": "no (0)"}
{"Molecule": "CC1Oc2cc(cnc2N)-c2c(nn(C)c2C#N)CN(C)C(=O)c2ccc(F)cc21 (stereo not given)", "Cat": "no (0)"}
{"Molecule": "CCCCCCCCCC(=O)N[C@@H](Cc1c[nH]c2ccccc12)C(=O)N[C@H](CC(N)=O)C(=O)N[C@@H](CC(=O)O)C(=O)N[C@@H]1C(=O)NCC(=O)N[C@@H](CCCN)C(=O)N[C@@H](CC(=O)O)C(=O)N[C@H](C)C(=O)N[C@@H](CC(=O)O)C(=O)NCC(=O)N[C@H](CO)C(=O)N[C@@H]([C@H](C)CC(=O)O)C(=O)N[C@@H](CC(=O)c2ccccc2N)C(=O)O[C@@H]1C [Daptomycin]", "Cat": "no (0)"}
{"Molecule": "CCOC(=O)Nc1cc(-c2ccc(C)c(NS(C)(=O)=O)c2)nn2c(C)nnc12 [Bromosporine]", "Cat": "yes (1)"}
{"Molecule": "CN(C)Cc1ccc(-c2nc3cccc4c3n2CCNC4=O)cc1", "Cat": "no (0)"}
{"Molecule": "CO[C@@]1(NC(=O)Cc2cccs2)C(=O)N2C(C(=O)O)=C(COC(N)=O)CS[C@@H]21 [Cefoxitin]", "Cat": "no (0)"}
{"Molecule": "NS(=O)(=O)Cc1noc2ccccc12 [Zonisamide]", "Cat": "no (0)"}
{"Molecule": "CC1(COc2ccc3c(c2)ncn3-c2ccc3cccc(N4CCC(N)CC4)c3n2)COC1", "Cat": "yes (1)"}
{"Molecule": "Cc1[nH]nc2ccc(-c3cncc(OC[C@@H](N)Cc4ccccc4)c3)cc12", "Cat": "yes (1)"}
{"Molecule": "CNC(=O)[C@@H](NC(=O)[C@H](CC(C)C)[C@H](O)C(=O)NO)C(C)(C)C [Marimastat (BB-2516)]", "Cat": "no (0)"}
{"Molecule": "COc1ccc2cc1Oc1ccc(cc1)C[C@H]1c3c(cc4c(c3Oc3cc5c(cc3OC)CCN(C)[C@@H]5C2)OCO4)CCN1C [Cepharanthine]", "Cat": "yes (1)"}
{"Molecule": "CCCCc1nc(Cl)c(CO)n1Cc1ccc(-c2ccccc2-c2nnn[nH]2)cc1 [Losartan Potassium (DuP 753)]", "Cat": "no (0)"}
{"Molecule": "CC1(C)CCC2=C(O1)c1ccccc1C(=O)C2=O [Beta-Lapachone]", "Cat": "yes (1)"}
{"Molecule": "Cc1ccc(Cl)c(Nc2ccccc2C(=O)O)c1Cl [Meclofenamate Sodium]", "Cat": "no (0)"}
{"Molecule": "Cc1cn([C@H]2C[C@H](N=[N+]=[N-])[C@@H](CO)O2)c(=O)[nH]c1=O [Zidovudine]", "Cat": "no (0)"}
{"Molecule": "O=C(O)c1cn(-c2ccc(F)cc2)c2cc(N3CCNCC3)c(F)cc2c1=O [Sarafloxacin HCl]", "Cat": "no (0)"}
{"Molecule": "COc1cccc(-c2cc(=O)c3ccccc3o2)c1N", "Cat": "no (0)"}
{"Molecule": "Cc1cnc(Nc2ccc(N3CCN(C)CC3)cc2)nc1Nc1cccc(S(=O)(=O)NC(C)(C)C)c1", "Cat": "yes (1)"}
{"Molecule": "c1cc(CN2CCCNCCNCCCNCC2)ccc1CN1CCCNCCNCCCNCC1 [Plerixafor 8HCl (AMD3100 8HCl)]", "Cat": "no (0)"}
{"Molecule": "O=C1NC(=O)/C(=C/c2ccc3c(c2)OC(F)(F)O3)S1", "Cat": "no (0)"}
{"Molecule": "CN1CCN(c2nc(C3=C(c4c[nH]c5ccccc45)C(=O)NC3=O)c3ccccc3n2)CC1 [Sotrastaurin]", "Cat": "yes (1)"}
{"Molecule": "CCCC(=O)O[C@]1(C(=O)CO)CC[C@H]2[C@@H]3CCC4=CC(=O)CC[C@]4(C)[C@H]3[C@@H](O)C[C@@]21C [Hydrocortisone butyrate]", "Cat": "no (0)"}
{"Molecule": "CN1CCN(S(=O)(=O)c2ccc(-c3cnc(N)c(C(=O)Nc4cccnc4)n3)cc2)CC1", "Cat": "yes (1)"}
{"Molecule": "CN1C(C(=O)Nc2ccccn2)=C(O)c2ccccc2S1(=O)=O [Piroxicam]", "Cat": "no (0)"}
{"Molecule": "COc1ccc(C[C@@H]2c3cc(OC)c(OC)cc3CC[N@+]2(C)CCC(=O)OCCCCCOC(=O)CC[N@@+]2(C)CCc3cc(OC)c(OC)cc3[C@H]2Cc2ccc(OC)c(OC)c2)cc1OC [Cisatracurium Besylate]", "Cat": "no (0)"}
{"Molecule": "CCCCCOc1ccccc1/C(=C\\SC)n1ccnc1 [Neticonazole Hydrochloride]", "Cat": "no (0)"}

The measurements presented in this section are drawn from the supplement of paper PMC10127200.
